biological target: Bombyx mori EcR (VP16 fusion, CVBE switch construct) (Bombyx mori); assay: Z3 Assay (HEK-293 cells with CVBE and 6XEcRE LacZ, β-galactosidase reporter); settings: maximum fold induction at any concentration relative to that of GS-E ligand; HEK-293 Z3 cells
Sequence (P49881 86-606): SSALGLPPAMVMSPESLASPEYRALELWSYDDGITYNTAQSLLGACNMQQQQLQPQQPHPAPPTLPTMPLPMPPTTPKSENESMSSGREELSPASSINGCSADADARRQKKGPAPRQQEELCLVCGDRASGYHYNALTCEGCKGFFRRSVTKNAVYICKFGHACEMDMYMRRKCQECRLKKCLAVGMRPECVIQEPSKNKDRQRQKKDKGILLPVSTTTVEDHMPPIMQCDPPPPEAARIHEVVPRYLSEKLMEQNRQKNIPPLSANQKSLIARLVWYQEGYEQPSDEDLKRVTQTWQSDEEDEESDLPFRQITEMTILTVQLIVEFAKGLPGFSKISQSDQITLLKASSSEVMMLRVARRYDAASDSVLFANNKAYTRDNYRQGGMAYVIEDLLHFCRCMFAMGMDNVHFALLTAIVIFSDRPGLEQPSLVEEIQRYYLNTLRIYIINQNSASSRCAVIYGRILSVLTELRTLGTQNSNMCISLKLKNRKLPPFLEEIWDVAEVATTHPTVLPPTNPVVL
Sequence (P19793 whole entry partner, the tested form may be a part): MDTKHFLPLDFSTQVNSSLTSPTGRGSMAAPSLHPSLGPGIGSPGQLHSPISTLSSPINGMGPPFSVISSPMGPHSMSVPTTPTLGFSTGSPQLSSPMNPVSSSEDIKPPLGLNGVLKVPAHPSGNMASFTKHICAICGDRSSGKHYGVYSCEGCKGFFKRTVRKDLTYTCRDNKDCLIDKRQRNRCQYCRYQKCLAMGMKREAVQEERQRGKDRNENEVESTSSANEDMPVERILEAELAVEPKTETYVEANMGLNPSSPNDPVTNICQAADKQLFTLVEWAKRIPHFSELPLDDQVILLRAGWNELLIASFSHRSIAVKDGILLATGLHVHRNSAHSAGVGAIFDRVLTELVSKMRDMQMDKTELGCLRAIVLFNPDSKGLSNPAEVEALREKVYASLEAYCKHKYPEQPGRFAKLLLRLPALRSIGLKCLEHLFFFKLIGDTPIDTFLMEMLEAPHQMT
ENDPOINT: Z3 assay Rel Max FI
A bare number is all that is needed in reply.

Reference set, count: 3
{"GIVEN SMILES": "CCc1c(OC)cccc1C(=O)NN(C(=O)c1cc(C)cc(C)c1)C(C)(C)C=O", "Z3 assay Rel Max FI": 0.906}
{"GIVEN SMILES": "CCc1ccc(C(=O)NN(C(=O)c2ccc(F)cc2)C(C)(C)C)c(F)c1", "Z3 assay Rel Max FI": 0.918}
{"GIVEN SMILES": "CCc1c(OC)cccc1C(=O)NN(C(=O)c1cc(C)cc(/C=N/NC(N)=O)c1)C(C)(C)C", "Z3 assay Rel Max FI": 0.880}

Read the next record carefully.
// Z3 assay Rel Max FI value for COc1cc(C(=O)N(NC(=O)c2ccc3c(c2C)OCCO3)C(C)(C)C#N)cc(OC)c1C : 0.917

====

Fold Induction, 13B3 Assay, 33 uM values by entry
target: GAL4 DBD-CfEcR(DEF)/VP16AD-MmRXRE (Choristoneura fumiferana, UniProt O77240); test: 13B3 Assay (CHO stable cell line, luciferase reporter); settings: 33 uM ligand; RLU ligand treated / RLU DMSO treated cells; average of two wells
A bare number is all that is needed in reply.

{"GIVEN SMILES": "Cc1c(C(=O)NN(C(=O)c2cccc(F)c2)C(C)(C)C)ccc2c1CCCO2", "Fold Induction, 13B3 Assay, 33 uM": 1050}

Field Fold Induction, 13B3 Assay, 33 uM (GAL4 DBD-CfEcR(DEF)/VP16AD-MmRXRE (Choristoneura fumiferana, UniProt O77240)), entry COc1cnccc1C(=O)N(NC(=O)c1cccc(O)c1C)C(C)(C)C : 1381

Field Fold Induction, 13B3 Assay, 33 uM (GAL4 DBD-CfEcR(DEF)/VP16AD-MmRXRE (Choristoneura fumiferana, UniProt O77240)), entry Cc1ccc(F)c(C(=O)N(NC(=O)c2ccc3c(c2C)CCCO3)C(C)(C)C)c1 : 731

Field Fold Induction, 13B3 Assay, 33 uM (GAL4 DBD-CfEcR(DEF)/VP16AD-MmRXRE (Choristoneura fumiferana, UniProt O77240)), entry COc1cc(OC)cc(C(=O)N(NC(=O)c2cccc(C)c2C)C(C)(C)C)c1 : 3814

Field Fold Induction, 13B3 Assay, 33 uM (GAL4 DBD-CfEcR(DEF)/VP16AD-MmRXRE (Choristoneura fumiferana, UniProt O77240)), entry Cc1cc(C)cc(C(=O)N(NC(=O)c2ccc3c(c2F)COCO3)C(C)(C)C)c1 : 1500

Field Fold Induction, 13B3 Assay, 33 uM (GAL4 DBD-CfEcR(DEF)/VP16AD-MmRXRE (Choristoneura fumiferana, UniProt O77240)), entry Cc1cc(C)cc(C(=O)N(NC(=O)c2ccc3c(c2Cl)COCO3)C(C)(C)C)c1 : 738

Field Fold Induction, 13B3 Assay, 33 uM (GAL4 DBD-CfEcR(DEF)/VP16AD-MmRXRE (Choristoneura fumiferana, UniProt O77240)), entry CC(C)(C)N(NC(=O)c1c(F)ccc(F)c1F)C(=O)c1ccc(F)cc1Cl : 13982

Field Fold Induction, 13B3 Assay, 33 uM (GAL4 DBD-CfEcR(DEF)/VP16AD-MmRXRE (Choristoneura fumiferana, UniProt O77240)), entry COc1ccccc1C(=O)N(NC(=O)c1ccc2c(c1)OCCO2)C(C)(C)C : 1002

Field Fold Induction, 13B3 Assay, 33 uM (GAL4 DBD-CfEcR(DEF)/VP16AD-MmRXRE (Choristoneura fumiferana, UniProt O77240)), entry COc1ccc(C(=O)NN(C(=O)c2ccc(F)cc2Cl)C(C)(C)C)cc1 : 842
